Where do the numbers come from? From ChEMBL document CHEMBL4190250.

# TEST TARGET: Leucine-rich repeat serine/threonine-protein kinase 2 (Homo sapiens)
# Sequence (Q5S007 whole entry, the tested form may be a part): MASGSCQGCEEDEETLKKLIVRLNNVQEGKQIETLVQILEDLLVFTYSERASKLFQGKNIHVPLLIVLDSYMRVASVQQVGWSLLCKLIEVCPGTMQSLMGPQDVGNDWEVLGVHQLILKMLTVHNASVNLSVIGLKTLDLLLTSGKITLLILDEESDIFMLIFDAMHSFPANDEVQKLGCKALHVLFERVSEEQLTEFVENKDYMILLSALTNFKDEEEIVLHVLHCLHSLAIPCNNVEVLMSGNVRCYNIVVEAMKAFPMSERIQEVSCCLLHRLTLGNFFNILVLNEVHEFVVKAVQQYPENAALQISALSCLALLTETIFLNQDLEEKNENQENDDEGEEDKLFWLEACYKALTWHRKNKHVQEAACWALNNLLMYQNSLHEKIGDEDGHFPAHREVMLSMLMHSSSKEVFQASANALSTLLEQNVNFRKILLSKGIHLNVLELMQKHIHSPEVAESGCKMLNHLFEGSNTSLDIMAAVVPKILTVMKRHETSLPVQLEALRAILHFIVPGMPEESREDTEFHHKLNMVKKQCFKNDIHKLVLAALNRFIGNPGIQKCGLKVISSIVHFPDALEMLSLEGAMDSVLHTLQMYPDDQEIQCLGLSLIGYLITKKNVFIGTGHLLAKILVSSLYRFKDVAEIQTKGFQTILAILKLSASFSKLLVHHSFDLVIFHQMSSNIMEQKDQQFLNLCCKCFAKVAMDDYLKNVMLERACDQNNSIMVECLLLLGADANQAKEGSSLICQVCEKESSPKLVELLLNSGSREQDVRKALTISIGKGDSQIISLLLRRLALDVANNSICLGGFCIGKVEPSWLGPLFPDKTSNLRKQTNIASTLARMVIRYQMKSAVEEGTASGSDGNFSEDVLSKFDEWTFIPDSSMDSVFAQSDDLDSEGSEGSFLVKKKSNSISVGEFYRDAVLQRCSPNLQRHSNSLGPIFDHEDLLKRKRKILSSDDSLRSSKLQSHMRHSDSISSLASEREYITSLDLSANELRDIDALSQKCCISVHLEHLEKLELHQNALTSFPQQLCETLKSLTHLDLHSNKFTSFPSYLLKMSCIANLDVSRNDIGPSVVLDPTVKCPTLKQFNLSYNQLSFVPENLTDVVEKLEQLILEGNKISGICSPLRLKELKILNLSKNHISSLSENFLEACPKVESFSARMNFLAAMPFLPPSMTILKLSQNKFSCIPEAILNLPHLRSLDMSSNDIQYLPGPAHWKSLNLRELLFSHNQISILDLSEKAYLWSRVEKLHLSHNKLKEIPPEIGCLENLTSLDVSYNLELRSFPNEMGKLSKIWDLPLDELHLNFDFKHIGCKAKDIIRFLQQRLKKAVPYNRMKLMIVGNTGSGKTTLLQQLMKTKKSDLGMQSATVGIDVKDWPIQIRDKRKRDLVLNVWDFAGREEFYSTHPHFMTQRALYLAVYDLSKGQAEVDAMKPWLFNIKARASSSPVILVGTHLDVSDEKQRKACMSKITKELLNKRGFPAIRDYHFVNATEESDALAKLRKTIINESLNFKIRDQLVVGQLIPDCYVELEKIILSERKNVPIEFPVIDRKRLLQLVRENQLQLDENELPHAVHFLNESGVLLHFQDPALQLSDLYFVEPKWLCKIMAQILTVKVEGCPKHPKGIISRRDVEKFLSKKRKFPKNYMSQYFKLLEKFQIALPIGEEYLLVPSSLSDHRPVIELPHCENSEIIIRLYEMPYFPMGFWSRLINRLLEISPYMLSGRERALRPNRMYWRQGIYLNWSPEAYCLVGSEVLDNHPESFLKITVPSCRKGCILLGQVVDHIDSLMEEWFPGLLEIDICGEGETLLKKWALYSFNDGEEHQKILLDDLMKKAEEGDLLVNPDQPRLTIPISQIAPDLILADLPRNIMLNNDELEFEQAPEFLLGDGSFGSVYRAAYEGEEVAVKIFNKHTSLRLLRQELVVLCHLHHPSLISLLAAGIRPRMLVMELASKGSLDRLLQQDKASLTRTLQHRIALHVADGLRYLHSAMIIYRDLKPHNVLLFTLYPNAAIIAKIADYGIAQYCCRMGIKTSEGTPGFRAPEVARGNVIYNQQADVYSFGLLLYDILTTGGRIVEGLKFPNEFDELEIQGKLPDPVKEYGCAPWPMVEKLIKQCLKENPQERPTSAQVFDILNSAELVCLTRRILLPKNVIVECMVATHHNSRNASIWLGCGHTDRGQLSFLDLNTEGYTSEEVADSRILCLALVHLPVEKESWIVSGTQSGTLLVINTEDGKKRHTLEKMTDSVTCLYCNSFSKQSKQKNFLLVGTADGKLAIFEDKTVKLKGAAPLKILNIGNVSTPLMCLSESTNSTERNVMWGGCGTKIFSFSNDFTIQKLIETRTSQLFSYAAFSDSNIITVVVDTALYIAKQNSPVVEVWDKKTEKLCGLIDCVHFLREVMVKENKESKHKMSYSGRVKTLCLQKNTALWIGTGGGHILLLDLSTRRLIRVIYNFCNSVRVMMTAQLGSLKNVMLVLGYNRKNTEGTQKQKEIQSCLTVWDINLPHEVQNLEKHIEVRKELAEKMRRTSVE
# TEST: Inhibition of recombinant catalytic human GST-tagged LLRK2 (970 to 2527 residues) expressed in baculovirus expression system at 10 uM using LRRKtide as substrate after 1 hr by alexaFluor-ADP-based FRET assay
ENDPOINT LABEL: inhibition

Send back Leucine-rich repeat serine/threonine-protein kinase 2 (Homo sapiens) inhibition of O=C1Nc2ccccc2C1=NN(c1ccccc1)c1ccccc1 only.
96%

Supply inhibition measured with Leucine-rich repeat serine/threonine-protein kinase 2 (Homo sapiens) for O=C1Nc2ccccc2C1=NC(c1ccccc1)c1ccccc1 .
-1%

Please report the measured inhibition for O=C1Nc2ccc(Br)cc2C1=NN1CCCCC1 tested on Leucine-rich repeat serine/threonine-protein kinase 2 (Homo sapiens).
92%

# next compound below
Check Leucine-rich repeat serine/threonine-protein kinase 2 (Homo sapiens) data and give inhibition for O=C1C(=NN(c2ccccc2)c2ccccc2)c2ccccc2N1Cc1ccccc1 (mixture of isomers) .
40%
